Data origin, for the record: ChEMBL document CHEMBL1157496

# assay.summary: Cmax in dog at 1 mg/kg, po
# Type: ADME, organism-based, Canis lupus familiaris
# Parameters: dose 1 mg/kg, route oral
# experimental.conditions: in vivo
quantity.measured: Cmax (nM)

[[record]]
input_smiles = "CC1(C)C[C@@H](CN2CCC(F)(CNC(=O)c3cc(Cl)cc(Cl)c3)CC2)CCO1"
quantity_measured = "Cmax"
val = 2180


---

# test.target: Voltage-gated inwardly rectifying potassium channel KCNH2 (Homo sapiens, UniProt Q12809)
# Sequence (Q12809 whole entry): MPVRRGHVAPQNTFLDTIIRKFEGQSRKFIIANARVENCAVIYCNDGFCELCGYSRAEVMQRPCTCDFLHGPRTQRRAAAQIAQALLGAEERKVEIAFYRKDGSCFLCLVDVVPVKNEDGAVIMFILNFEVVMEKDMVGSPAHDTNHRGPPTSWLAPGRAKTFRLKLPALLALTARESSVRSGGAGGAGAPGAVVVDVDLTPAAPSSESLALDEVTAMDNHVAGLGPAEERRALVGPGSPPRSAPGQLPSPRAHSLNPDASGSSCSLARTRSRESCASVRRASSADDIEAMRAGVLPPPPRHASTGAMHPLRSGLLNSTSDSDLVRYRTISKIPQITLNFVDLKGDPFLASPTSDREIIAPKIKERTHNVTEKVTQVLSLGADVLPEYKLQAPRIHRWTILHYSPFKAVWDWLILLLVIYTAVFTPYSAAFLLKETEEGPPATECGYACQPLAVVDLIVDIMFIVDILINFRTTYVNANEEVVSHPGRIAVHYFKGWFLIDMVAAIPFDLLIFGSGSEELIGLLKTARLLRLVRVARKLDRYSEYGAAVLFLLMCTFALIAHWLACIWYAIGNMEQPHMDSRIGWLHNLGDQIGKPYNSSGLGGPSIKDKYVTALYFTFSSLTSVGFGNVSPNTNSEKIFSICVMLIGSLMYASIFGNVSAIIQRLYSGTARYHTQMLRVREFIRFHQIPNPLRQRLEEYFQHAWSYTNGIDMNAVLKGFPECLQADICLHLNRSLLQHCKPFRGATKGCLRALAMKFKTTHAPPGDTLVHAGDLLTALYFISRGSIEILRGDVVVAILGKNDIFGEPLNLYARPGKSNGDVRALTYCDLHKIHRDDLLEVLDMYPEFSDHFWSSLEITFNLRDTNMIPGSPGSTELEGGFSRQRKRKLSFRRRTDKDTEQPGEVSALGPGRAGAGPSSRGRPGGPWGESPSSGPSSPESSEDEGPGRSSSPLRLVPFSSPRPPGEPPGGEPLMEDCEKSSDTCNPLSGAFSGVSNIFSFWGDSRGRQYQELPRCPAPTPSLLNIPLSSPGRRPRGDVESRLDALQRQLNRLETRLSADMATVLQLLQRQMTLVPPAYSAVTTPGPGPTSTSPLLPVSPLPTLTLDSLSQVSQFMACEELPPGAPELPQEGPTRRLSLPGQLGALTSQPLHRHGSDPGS
pIC50: −log10 of the molar value.
quantity.measured: pIC50

[[record]]
input_smiles = "CC(C)(C)CCN1CCC(F)(CNC(=O)c2cc(Cl)cc(Cl)c2)CC1"
val = 5.65


---

# assay.summary: Oral bioavailability in rat at 10 mg/kg
# Assay type: ADME, organism-based
# experimental.conditions: in vivo
quantity.measured: bioavailability (%)

[[record]]
input_smiles = "CC1(C)C[C@@H](CN2CCC(F)(CNC(=O)c3cc(Cl)cc(Cl)c3)CC2)CCO1"
quantity_measured = "bioavailability"
units_symbol = "%"
val = 36


---

# assay.summary: Clearance in rat at 1 mg/kg, iv
# Type: ADME, organism-based
# Set-up: dose 1 mg/kg, route intravenous
# experimental.conditions: in vivo
quantity.measured: clearance (mL/min/kg)

[[record]]
input_smiles = "CC1(C)C[C@@H](CN2CCC(F)(CNC(=O)c3cc(Cl)cc(Cl)c3)CC2)CCO1"
quantity_measured = "clearance"
units_symbol = "mL/min/kg"
val = 75


---

# assay.summary: Half life in dog at 0.5 mg/kg, iv
# Type: ADME, organism-based, Canis lupus familiaris
# Set-up: dose 0.5 mg/kg, route intravenous
# experimental.conditions: in vivo
quantity.measured: half-life (h)

[[record]]
input_smiles = "CC1(C)C[C@@H](CN2CCC(F)(CNC(=O)c3cc(Cl)cc(Cl)c3)CC2)CCO1"
quantity_measured = "half-life"
val = 4.7


---

# assay.summary: Oral bioavailability in monkey at 2 mg/kg
# Format: ADME, organism-based, Macaca mulatta
# experimental.conditions: rhesus monkey, in vivo
quantity.measured: bioavailability (%)

[[record]]
input_smiles = "CC1(C)C[C@@H](CN2CCC(F)(CNC(=O)c3cc(Cl)cc(Cl)c3)CC2)CCO1"
quantity_measured = "bioavailability"
units_symbol = "%"
val = 44


---

# assay.summary: Volume of distribution at steady state in rat at 1 mg/kg, iv
# Format: ADME, organism-based
# Parameters: dose 1 mg/kg, route intravenous
# experimental.conditions: in vivo, read-out: Vdss
quantity.measured: Vd

[[record]]
input_smiles = "CC1(C)C[C@@H](CN2CCC(F)(CNC(=O)c3cc(Cl)cc(Cl)c3)CC2)CCO1"
val = "10 L/kg"


---

# assay.summary: Half life in monkey at 0.5 mg/kg, iv
# Assay type: ADME, organism-based, Macaca mulatta
# Set-up: dose 0.5 mg/kg, route intravenous
# experimental.conditions: rhesus monkey, in vivo
quantity.measured: half-life (h)

[[record]]
input_smiles = "CC1(C)C[C@@H](CN2CCC(F)(CNC(=O)c3cc(Cl)cc(Cl)c3)CC2)CCO1"
val = 3.3


---

# assay.summary: Protein binding in dog plasma
# Assay type: ADME, cell-free, Canis lupus familiaris
# experimental.conditions: read-out: PPB
quantity.measured: fraction unbound

[[record]]
input_smiles = "CC1(C)C[C@@H](CN2CCC(F)(CNC(=O)c3cc(Cl)cc(Cl)c3)CC2)CCO1"
quantity_measured = "fraction unbound"
val = 0.01


---

# assay.summary: Half life in rat at 1 mg/kg, iv
# Format: ADME, organism-based
# Set-up: dose 1 mg/kg, route intravenous
# experimental.conditions: in vivo
quantity.measured: half-life (h)

[[record]]
input_smiles = "CC1(C)C[C@@H](CN2CCC(F)(CNC(=O)c3cc(Cl)cc(Cl)c3)CC2)CCO1"
val = 1.8


---

# assay.summary: Drug level in dog plasma at 1.29 mg/kg, iv measured at end of 60 mins infusion
# Format: ADME, organism-based, Canis lupus familiaris
# Design: dose 1.29 mg/kg, route intravenous
# experimental.conditions: read-out: Drug uptake
quantity.measured: concentration at 1 h (nM)

[[record]]
input_smiles = "CC1(C)C[C@@H](CN2CCC(F)(CNC(=O)c3cc(Cl)cc(Cl)c3)CC2)CCO1"
val = 1500


---

# assay.summary: Binding affinity to sigma receptor
quantity.measured: Ki

[[record]]
input_smiles = "CC1(C)C[C@@H](CN2CCC(F)(CNC(=O)c3cc(Cl)cc(Cl)c3)CC2)CCO1"
val = "< 0.1 µM"


---

# assay.summary: Tmax in dog at 1 mg/kg, po
# Type: ADME, organism-based, Canis lupus familiaris
# Parameters: dose 1 mg/kg, route oral
# experimental.conditions: in vivo
quantity.measured: Tmax (h)

[[record]]
input_smiles = "CC1(C)C[C@@H](CN2CCC(F)(CNC(=O)c3cc(Cl)cc(Cl)c3)CC2)CCO1"
val = 3.1


---

# assay.summary: Cmax in Wistar albino Glaxo rat model of absence epilepsy at 10 mg/kg
# Format: ADME, organism-based
# Parameters: dose 10 mg/kg
# experimental.conditions: in vivo
quantity.measured: Cmax (nM)

[[record]]
input_smiles = "CC1(C)C[C@@H](CN2CCC(F)(CNC(=O)c3cc(Cl)cc(Cl)c3)CC2)CCO1"
val = 1000


---

# test.target: Voltage-dependent T-type calcium channel subunit alpha-1I (Homo sapiens) (UniProt Q9P0X4)
# Sequence (Q9P0X4 whole entry): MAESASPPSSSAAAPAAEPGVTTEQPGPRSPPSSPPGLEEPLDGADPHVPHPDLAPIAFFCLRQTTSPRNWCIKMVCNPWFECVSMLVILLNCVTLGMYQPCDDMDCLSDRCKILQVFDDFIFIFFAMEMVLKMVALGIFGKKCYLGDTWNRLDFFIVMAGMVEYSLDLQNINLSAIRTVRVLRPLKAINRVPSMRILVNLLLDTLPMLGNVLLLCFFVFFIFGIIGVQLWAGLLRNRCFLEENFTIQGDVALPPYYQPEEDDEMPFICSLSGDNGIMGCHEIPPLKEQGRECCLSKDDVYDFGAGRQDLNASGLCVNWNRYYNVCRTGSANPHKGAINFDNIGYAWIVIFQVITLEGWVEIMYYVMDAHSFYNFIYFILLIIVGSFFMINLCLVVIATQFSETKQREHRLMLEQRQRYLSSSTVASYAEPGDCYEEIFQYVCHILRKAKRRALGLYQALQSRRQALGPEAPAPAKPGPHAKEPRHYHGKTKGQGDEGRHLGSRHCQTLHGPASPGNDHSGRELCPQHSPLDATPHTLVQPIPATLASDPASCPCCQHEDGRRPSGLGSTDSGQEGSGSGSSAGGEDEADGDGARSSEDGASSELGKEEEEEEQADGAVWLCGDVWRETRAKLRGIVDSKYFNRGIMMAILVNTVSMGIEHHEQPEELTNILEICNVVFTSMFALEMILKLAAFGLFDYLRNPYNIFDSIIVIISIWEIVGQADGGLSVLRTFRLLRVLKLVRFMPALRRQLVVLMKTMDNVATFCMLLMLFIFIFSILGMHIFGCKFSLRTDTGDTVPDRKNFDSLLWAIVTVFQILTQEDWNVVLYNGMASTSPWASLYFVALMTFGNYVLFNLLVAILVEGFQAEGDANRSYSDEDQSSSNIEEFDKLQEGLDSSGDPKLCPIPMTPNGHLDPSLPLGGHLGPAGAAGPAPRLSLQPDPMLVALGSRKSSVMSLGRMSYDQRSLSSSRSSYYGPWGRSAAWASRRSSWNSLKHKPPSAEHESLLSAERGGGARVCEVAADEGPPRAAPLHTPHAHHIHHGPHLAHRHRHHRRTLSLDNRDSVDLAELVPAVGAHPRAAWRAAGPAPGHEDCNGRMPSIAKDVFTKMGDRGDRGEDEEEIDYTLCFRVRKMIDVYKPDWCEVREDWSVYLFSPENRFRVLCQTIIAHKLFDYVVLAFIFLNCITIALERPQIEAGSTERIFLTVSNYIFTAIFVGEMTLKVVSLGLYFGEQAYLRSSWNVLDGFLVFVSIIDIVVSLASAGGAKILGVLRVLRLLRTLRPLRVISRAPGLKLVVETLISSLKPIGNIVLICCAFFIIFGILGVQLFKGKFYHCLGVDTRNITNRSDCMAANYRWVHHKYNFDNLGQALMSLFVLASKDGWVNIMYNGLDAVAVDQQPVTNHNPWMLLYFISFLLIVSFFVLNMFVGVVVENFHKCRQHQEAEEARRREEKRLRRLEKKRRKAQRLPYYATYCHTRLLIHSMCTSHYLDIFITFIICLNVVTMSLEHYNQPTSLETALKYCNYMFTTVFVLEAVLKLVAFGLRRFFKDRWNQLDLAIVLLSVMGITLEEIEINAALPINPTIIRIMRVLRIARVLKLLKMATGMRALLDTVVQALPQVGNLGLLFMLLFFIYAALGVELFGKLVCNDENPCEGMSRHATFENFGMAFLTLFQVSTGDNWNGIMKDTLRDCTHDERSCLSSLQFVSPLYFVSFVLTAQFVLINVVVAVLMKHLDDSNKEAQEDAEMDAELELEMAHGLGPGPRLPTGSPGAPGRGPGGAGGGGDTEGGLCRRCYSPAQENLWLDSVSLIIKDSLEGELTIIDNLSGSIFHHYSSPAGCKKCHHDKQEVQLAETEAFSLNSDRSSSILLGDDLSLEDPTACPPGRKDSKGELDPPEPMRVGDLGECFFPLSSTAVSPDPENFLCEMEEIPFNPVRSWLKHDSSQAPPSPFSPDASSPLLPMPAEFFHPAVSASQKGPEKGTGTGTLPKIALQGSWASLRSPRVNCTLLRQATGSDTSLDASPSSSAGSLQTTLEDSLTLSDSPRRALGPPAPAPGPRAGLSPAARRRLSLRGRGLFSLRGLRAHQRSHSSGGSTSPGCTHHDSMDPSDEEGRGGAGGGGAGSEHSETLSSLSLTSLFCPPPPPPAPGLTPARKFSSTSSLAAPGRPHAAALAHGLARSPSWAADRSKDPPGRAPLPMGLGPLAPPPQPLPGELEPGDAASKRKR
# assay.summary: Antagonist activity at T type calcium channel Cav3.3 alpha1i at -60 mV by FLIPR assay
# Format: functional
# Activity values compiled below
quantity.measured: Activity

[[record]]
molecule = "CC1(C)CC(CN2CCC(F)(CNC(=O)c3cc(Cl)cc(Cl)c3)CC2)CCO1 (racemic)"
quantity_measured = "Activity"
val = "333 nM"

[[record]]
molecule = "CC(C)(C)CCN1CCC(F)(CNC(=O)c2cc(Cl)cc(Cl)c2)CC1"
quantity_measured = "Activity"
val = "64 nM"

[[record]]
molecule = "CC1(C)C[C@H](CN2CCC(F)(CNC(=O)c3cc(Cl)cc(Cl)c3)CC2)CCO1"
quantity_measured = "Activity"
val = "297 nM"

[[record]]
molecule = "CC1(C)C[C@@H](CN2CCC(F)(CNC(=O)c3cc(Cl)cc(Cl)c3)CC2)CCO1"
quantity_measured = "Activity"
val = "181 nM"

[[record]]
molecule = "CC(C)(C)CCN1CCC(CNC(=O)c2cc(Cl)cc(Cl)c2)CC1"
quantity_measured = "Activity"
val = "98 nM"


---

# assay.summary: Protein binding in rat plasma
# Type: ADME, cell-free
# experimental.conditions: read-out: PPB (converted)
quantity.measured: fraction unbound

[[record]]
input_smiles = "CC1(C)C[C@@H](CN2CCC(F)(CNC(=O)c3cc(Cl)cc(Cl)c3)CC2)CCO1"
val = 0.057


---

# assay.summary: Clearance in dog at 0.5 mg/kg, iv
# Format: ADME, organism-based, Canis lupus familiaris
# Parameters: dose 0.5 mg/kg, route intravenous
# experimental.conditions: in vivo
quantity.measured: clearance (mL/min/kg)

[[record]]
input_smiles = "CC1(C)C[C@@H](CN2CCC(F)(CNC(=O)c3cc(Cl)cc(Cl)c3)CC2)CCO1"
units_symbol = "mL/min/kg"
val = 2.3


---

# assay.summary: Cmax in monkey at 2 mg/kg, po
# Format: ADME, organism-based, Macaca mulatta
# Set-up: dose 2 mg/kg, route oral
# experimental.conditions: rhesus monkey, in vivo
quantity.measured: Cmax (nM)

[[record]]
input_smiles = "CC1(C)C[C@@H](CN2CCC(F)(CNC(=O)c3cc(Cl)cc(Cl)c3)CC2)CCO1"
quantity_measured = "Cmax"
units_symbol = "nM"
val = 580


---

# assay.summary: Volume of distribution at steady state in dog at 0.5 mg/kg, iv
# Format: ADME, organism-based, Canis lupus familiaris
# Design: dose 0.5 mg/kg, route intravenous
# experimental.conditions: in vivo, read-out: Vdss
quantity.measured: Vd (L/kg)

[[record]]
input_smiles = "CC1(C)C[C@@H](CN2CCC(F)(CNC(=O)c3cc(Cl)cc(Cl)c3)CC2)CCO1"
val = 1


---

# assay.summary: AUC (0 to 24 hrs) in rat at 10 mg/kg, po
# Format: ADME, organism-based
# Parameters: time < 24 hr, dose 10 mg/kg, route oral
# experimental.conditions: plasma
quantity.measured: AUC(0-t) at 24 h

[[record]]
input_smiles = "CC1(C)C[C@@H](CN2CCC(F)(CNC(=O)c3cc(Cl)cc(Cl)c3)CC2)CCO1"
quantity_measured = "AUC(0-t) at 24 h"
val = "1.94 µM·h"


---

# assay.summary: Clearance in monkey at 0.5 mg/kg, iv
# Type: ADME, organism-based, Macaca mulatta
# Parameters: dose 0.5 mg/kg, route intravenous
# experimental.conditions: rhesus monkey, in vivo
quantity.measured: clearance (L/h/kg)

[[record]]
input_smiles = "CC1(C)C[C@@H](CN2CCC(F)(CNC(=O)c3cc(Cl)cc(Cl)c3)CC2)CCO1"
units_symbol = "L/h/kg"
val = 0.816

